- target-desc: PI3Kγ (p110γ) Recombinant Human Protein (Homo sapiens (Human), UniProt P48736)
- Sequence (P48736 whole entry): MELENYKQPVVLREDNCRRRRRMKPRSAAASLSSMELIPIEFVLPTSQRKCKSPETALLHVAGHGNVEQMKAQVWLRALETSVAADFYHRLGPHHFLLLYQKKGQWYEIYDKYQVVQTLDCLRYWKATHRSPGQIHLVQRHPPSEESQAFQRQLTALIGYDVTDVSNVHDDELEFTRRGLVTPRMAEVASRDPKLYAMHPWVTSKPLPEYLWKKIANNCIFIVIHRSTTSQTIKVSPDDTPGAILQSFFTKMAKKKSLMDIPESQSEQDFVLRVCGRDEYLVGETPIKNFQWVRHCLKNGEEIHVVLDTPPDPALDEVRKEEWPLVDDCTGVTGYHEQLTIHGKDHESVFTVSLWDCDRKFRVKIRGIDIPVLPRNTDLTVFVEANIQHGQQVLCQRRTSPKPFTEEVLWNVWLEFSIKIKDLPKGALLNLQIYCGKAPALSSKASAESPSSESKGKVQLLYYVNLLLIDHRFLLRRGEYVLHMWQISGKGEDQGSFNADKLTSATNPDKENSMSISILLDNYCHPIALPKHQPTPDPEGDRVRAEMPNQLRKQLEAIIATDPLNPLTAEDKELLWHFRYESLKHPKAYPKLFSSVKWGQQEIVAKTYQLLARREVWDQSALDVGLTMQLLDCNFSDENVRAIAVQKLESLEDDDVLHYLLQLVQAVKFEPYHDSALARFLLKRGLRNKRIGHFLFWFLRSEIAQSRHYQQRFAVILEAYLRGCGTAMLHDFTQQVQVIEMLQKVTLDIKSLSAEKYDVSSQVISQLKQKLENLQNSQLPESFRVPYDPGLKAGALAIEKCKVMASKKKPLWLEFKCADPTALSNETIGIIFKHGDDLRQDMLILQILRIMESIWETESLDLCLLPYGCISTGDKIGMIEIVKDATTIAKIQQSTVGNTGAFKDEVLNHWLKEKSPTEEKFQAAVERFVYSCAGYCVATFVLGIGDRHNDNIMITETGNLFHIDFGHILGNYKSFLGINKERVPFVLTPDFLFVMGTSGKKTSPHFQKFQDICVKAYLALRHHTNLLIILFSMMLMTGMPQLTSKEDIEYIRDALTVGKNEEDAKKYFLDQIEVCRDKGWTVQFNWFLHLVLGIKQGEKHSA
- protocol-description: PI3K-γ Scintillation Proximity Assay
- Type: biochemical
- setup-conditions: read-out: PI3Kγ IC50
pIC50: −log10 of the molar value. Counter-ions that a name gives are not always drawn.
Reported pIC50 values for a set of compounds

These recorded examples may help you get a feel for the data.
| compound | pIC50 |
| --- | --- |
| Cc1ccc(-c2cnc3c(N)nccn23)cc1S(=O)(=O)N[C@H]1CC[C@H](O)CC1 [Example 41] | > 7.00 |
| COc1ncccc1-c1cn2c(-c3cc(S(=O)(=O)C(C)(C)C(C)O)ccc3C)cnc2c(N)n1 (stereo not shown) [Example 502, trifluoroacetate] | > 7.00 |
| Cc1ccc(S(=O)(=O)N2CCN(c3ccc(C#N)cn3)CC2)cc1-c1cnc2c(N)ncnn12 [Example 232] | > 7.00 |
| Nc1nc(C(F)(F)F)cn2c(-c3ccc(Cl)c(S(=O)(=O)NC45CCC(CO)(C4)C5)c3)cnc12 [Example 399, trifluoroacetate salt] | > 7.00 |
| Cc1ccc(S(=O)(=O)N[C@H]2CC[C@H](CC#N)OC2)cc1-c1cnc2c(N)ncnn12 [Example 183] | > 7.00 |

What value of pIC50 has been reported for the following compound? Cc1ccc(S(=O)(=O)N[C@H]2C[C@H](C#N)C2)cc1-c1cnc2c(N)ncnn12 [Example 370, trifluoroacetate salt]
> 7.00

// repeat for Cc1ccc(S(=O)(=O)N2CCCC(C#N)C2)cc1-c1cnc2c(N)nc(C(F)(F)F)cn12 (stereo not shown) [Example 314] and report
> 7.00
